MEASUREMENT_TARGET: recombinant human PAI-1 (Homo sapiens)
Sequence (P05121 24-402): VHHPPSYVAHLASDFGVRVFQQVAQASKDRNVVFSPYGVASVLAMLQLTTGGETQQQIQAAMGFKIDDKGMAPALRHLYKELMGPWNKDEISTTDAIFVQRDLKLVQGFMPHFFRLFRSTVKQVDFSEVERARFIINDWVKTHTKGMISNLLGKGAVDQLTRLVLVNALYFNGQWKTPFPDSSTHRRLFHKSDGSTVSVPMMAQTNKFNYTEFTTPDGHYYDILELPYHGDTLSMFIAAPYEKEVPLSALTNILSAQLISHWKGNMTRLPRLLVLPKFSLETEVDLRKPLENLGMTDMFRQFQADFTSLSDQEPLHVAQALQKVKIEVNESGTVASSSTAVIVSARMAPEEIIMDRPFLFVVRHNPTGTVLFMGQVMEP
ASSAY_METHOD_TEXT: biochemical
CONDITION_DESCRIPTION: read-out: Inhibition Rate of PAI-1 Activity (%)
ASSAY_READOUT: inhibition at 5 µM (%)
Expressed in %, but write only the number.

**Q:** Tell us which inhibition at 5 µM value is on record for CC(C)Oc1ccc(N(Cc2ccc(C(C)(C)C)cc2)C(=O)C(=O)O)c(-c2ccc(OC(F)(F)F)cc2)c1 [Compound 209]
**A:** 81

**Q:** Return inhibition at 5 µM (reported value) for this compound: CC(C)(C)c1ccc(-c2ccc(N(Cc3ccccc3OC(F)(F)F)C(=O)C(=O)O)cc2)cc1 [Compound 202]
**A:** 70

**Q:** Annotate the compound Cc1cccc(CN(C(=O)C(=O)O)c2ccc(-c3ccc(OC(F)(F)F)cc3)cc2)c1 [Compound 125] with its measured inhibition at 5 µM.
**A:** 15

====

MEASUREMENT_TARGET: recombinant human PAI-1 (Homo sapiens);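 also: PAI-1 preincubated with compound, then two-chain tPA added, residual tPA activity read with fluorogenic Pyr-Gly-Arg-MCA substrate after 30 min at room temperature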
ASSAY_METHOD_TEXT: biochemical
CONDITION_DESCRIPTION: read-out: Inhibition Rate of PAI-1 Activity (%)
In this section we review reported inhibition at 10 µM values for a set of compounds.

These solved cases illustrate the format of a correct answer.
**Q:** Assign inhibition at 10 µM to the following record: CC(C)(C)c1ccc(CN(C(=O)C(=O)O)c2ccc(-c3ccc(OC(F)(F)F)cc3)c(C(F)(F)F)c2)cc1
**A:** 79%

**Q:** Entry CCCCCCN(C(=O)C(=O)O)c1ccc(Oc2ccc(OC(F)(F)F)cc2)cc1 needs its inhibition at 10 µM filled in; supply it.
**A:** 6%

**Q:** Specify inhibition at 10 µM for CC(C)(C)c1ccc(CN(C(=O)C(=O)O)c2cc(Oc3ccc(OC(F)(F)F)cc3)cc(C(F)(F)F)c2)cc1 and stop.
**A:** 94%

**Q:** Hello, please tell me recorded inhibition at 10 µM for this one: Cc1ccc(-c2ccccc2)cc1N(Cc1ccc(C(C)(C)C)cc1)C(=O)C(=O)O
**A:** 5%

**Q:** // Input: CC(C)(C)c1ccc(N(C(=O)C(=O)O)c2ccc(Oc3ccc(OC(F)(F)F)cc3)cc2)cc1 . Output its inhibition at 10 µM only.
**A:** 64%

**Q:** For the compound CC(C)(C)c1ccc(COc2cc(/C=C/C(=O)O)cc(Oc3ccc(OC(F)(F)F)cc3)c2)cc1 , report inhibition at 10 µM.
**A:** 59%

---
**Q:** Please give the documented inhibition at 10 µM of CC(C)(C)c1ccc(Oc2ccc(Oc3ccc(OC(F)(F)F)cc3)cc2/C=C/C(=O)O)cc1
**A:** 66%

====

MEASUREMENT_TARGET: recombinant rat PAI-1 (Rattus norvegicus, UniProt P20961)
Sequence (P20961 24-402): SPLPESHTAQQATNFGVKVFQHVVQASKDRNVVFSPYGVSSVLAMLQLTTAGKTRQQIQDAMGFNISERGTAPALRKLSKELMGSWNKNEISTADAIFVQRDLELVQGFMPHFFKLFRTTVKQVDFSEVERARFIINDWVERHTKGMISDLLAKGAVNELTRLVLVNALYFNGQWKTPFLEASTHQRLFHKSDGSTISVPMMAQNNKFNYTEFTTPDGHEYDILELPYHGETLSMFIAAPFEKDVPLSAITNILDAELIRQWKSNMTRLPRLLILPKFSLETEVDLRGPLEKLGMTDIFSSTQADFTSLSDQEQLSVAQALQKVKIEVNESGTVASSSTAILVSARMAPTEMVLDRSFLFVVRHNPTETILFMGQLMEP
ASSAY_METHOD_TEXT: biochemical
CONDITION_DESCRIPTION: read-out: Inhibition Rate of PAI-1 Activity (%)
ASSAY_READOUT: inhibition at 0.3 µM (%)
Report as a plain number; the unit % is understood.

**Q:** Tell me measured inhibition at 0.3 µM for CN(C)c1ccc(N(Cc2ccc(C(C)(C)C)cc2)C(=O)C(=O)O)cc1-c1ccc(OC(F)(F)F)cc1 please.
**A:** 0

**Q:** Give me measured inhibition at 0.3 µM, please, for this compound: CC(C)(C)c1ccc(CN(C(=O)C(=O)O)c2ccc(Oc3ccc(OC(F)(F)F)cc3)cc2C(F)(F)F)cc1
**A:** 0

**Q:** Find the measured inhibition at 0.3 µM of CC(C)(C)c1ccc(COc2ccc(-c3ccc(OC(F)(F)F)cc3)cc2N(Cc2ccccc2)C(=O)C(=O)O)cc1 and report it.
**A:** 7

**Q:** Please supply the value of reported inhibition at 0.3 µM for the item CC(C)(C)c1ccc(COc2ccc(-c3ccc(OC(F)(F)F)cc3)cc2CC(=O)O)cc1
**A:** 0

**Q:** Please give the documented inhibition at 0.3 µM of CC(C)(C)c1ccc(CN(C(=O)C(=O)O)c2cc(C(F)(F)F)ccc2-c2ccc(OC(F)(F)F)cc2)cc1
**A:** 0

---
**Q:** Tell us which inhibition at 0.3 µM value is on record for CCCCc1ccc(CN(C(=O)C(=O)O)c2ccc(-c3ccc(C(C)(C)C)cc3)cc2)cc1
**A:** 3

**Q:** Determine its reported inhibition at 0.3 µM: Cc1ccc(N(Cc2ccc(C(C)(C)C)cc2)C(=O)C(=O)O)cc1-c1ccc(OC(F)(F)F)cc1
**A:** 0

**Q:** Retrieve inhibition at 0.3 µM measured for CCN(CC)c1ccc(N(CCCc2ccccc2)C(=O)C(=O)O)c(-c2ccc(OC(F)(F)F)cc2)c1 and print it.
**A:** 0

**Q:** Return inhibition at 0.3 µM (reported value) for this compound: CC(C)(C)c1ccc(Oc2ccc(-c3ccc(OC(F)(F)F)cc3)cc2CCC(=O)O)cc1
**A:** 0

**Q:** Give inhibition at 0.3 µM for the following compound: O=C(O)CCc1cc(-c2ccc(OC(F)(F)F)cc2)ccc1OCCCCc1ccccc1
**A:** 0

**Q:** Recall and state the measured inhibition at 0.3 µM for CCCCC(c1ccc(C(C)(C)C)cc1)N(C(=O)C(=O)O)c1ccc(-c2ccc(OC(F)(F)F)cc2)cc1 (stereo not shown) .
**A:** 10

**Q:** Look up and report measured inhibition at 0.3 µM for this entry: CC(C)c1ccc(Oc2ccc(CCC(=O)O)c(Oc3ccc(C(C)C)cc3)c2)cc1
**A:** 0

**Q:** Give the measured inhibition at 0.3 µM for CCN(CC)c1ccc(N(Cc2ccc(C(C)(C)C)cc2)C(=O)C(=O)O)cc1-c1ccc(OC(F)(F)F)cc1
**A:** 8
